B1: Alpha-tocopherol transfer protein, P49638 (parent)
chain: MAEARSQPSAGPQLNALPDHSPLLQPGLAALRRRAREAGVPLAPLPLTDSFLLRFLRARDFDLDLAWRLLKNYYKWRAECPEISADLHPRSIIGLLKAGYHGVLRSRDPTGSKVLIYRIAHWDPKVFTAYDVFRVSLITSELIVQEVETQRNGIKAIFDLEGWQFSHAFQITPSVAKKIAAVLTDSFPLKVRGIHLINEPVIFHAVFSMIKPFLTEKIKERIHMHGNNYKQSLLQHFPDILPLEYGGEEFSMEDICQEWTNFIMKSEDYLSSISESIQ

Variants of: B1
Experimental parameters: Homo sapiens; pH 7.4; Thermal; Fluorescence; Tris 50mM; structure 1R5L; whole UniProt chain shown
With a cut-off of 80 °C, any Tm strictly below it is called fulfilled; any Tm meeting it or above is called not fulfilled.

Please review the following examples before continuing.
M264D
fulfilled
F169A
fulfilled
V206D
fulfilled
I202A
fulfilled
I202D
fulfilled
F165D
not fulfilled
F165A
not fulfilled

Note: attention shifts to another entry.
Query :: Could you please tell me whether Tm recorded for M209A is less than 80 °C?
Result :: not fulfilled
